Target: CD28 (Homo sapiens, UniProt P10747)
Assay: Jurkat/IL2 + K562/OKT3/PD-L1 reporter assay
Assay type: cell-based
Design: host or cells: Jurkat cells expressing an IL-2-luciferase reporter
Conditions: Table E8; K562/OKT3/PD-L1 aAPC; 50 nM
recorded_endpoint: Relative Luciferase Units (RLU), CD80-Fe Cone 50 nM

molecule: E35D/T41S/M43I/M47L/A71G (protein, UniProt P33681 35-288, looked up, variant E35D T41S M43I M47L A71G) T-lymphocyte activation …: VIHVTKEVKEVATLSCGHNVSVEELAQTRIYWQKDKKMVLSMISGDLNIWPEYKNRTIFDITNNLSIVILGLRPSDEGTYECVVLKYEKDAFKREHLAEVTLSVKADFPTPSISDFEIPTSNIRRIICSTSGGFPEPHLSWLENGEELNAINTTVSQDPETELYAVSSKLDFNMTTNHSFMCLIKYGHLRVNQTFNWNTTKQEHFPDNLLPSWAITLISVNGIFVICCLTYCFAPRCRERRRNERLRRESVRPV
assay_result: 1535
